Study system: T1, human SLC34A2 (human, UniProt O95436 1-690)
T1 construct: whole, on cells; also called human solute carrier 34 A2; NaPi2b
T1 sequence (looked up): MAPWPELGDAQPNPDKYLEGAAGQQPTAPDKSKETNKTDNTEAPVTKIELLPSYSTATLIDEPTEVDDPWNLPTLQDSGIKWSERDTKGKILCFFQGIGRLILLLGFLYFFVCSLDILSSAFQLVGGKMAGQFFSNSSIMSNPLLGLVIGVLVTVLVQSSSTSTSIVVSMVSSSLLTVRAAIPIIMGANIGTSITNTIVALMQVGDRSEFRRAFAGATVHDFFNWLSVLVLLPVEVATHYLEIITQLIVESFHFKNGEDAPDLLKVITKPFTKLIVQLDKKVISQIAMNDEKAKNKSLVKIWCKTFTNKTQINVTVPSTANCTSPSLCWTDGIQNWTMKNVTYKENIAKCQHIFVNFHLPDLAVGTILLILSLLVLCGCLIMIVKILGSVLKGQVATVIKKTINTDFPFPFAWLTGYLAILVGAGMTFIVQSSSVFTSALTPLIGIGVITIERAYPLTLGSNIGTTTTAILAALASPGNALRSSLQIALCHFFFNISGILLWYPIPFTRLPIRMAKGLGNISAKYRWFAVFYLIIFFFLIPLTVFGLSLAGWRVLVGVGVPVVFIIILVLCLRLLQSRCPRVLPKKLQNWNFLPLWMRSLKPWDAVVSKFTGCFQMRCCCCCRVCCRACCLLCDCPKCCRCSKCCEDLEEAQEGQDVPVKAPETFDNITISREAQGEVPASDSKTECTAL
Method summary: FACS, OVCAR3 cells
Could you please report measured Top (MFI) for the items listed next?

| Binder | Top (MFI) |
| --- | --- |
| xi16E5D10 hIgG1 (antibody, V domains shown, chimeric, hIgG1) VH: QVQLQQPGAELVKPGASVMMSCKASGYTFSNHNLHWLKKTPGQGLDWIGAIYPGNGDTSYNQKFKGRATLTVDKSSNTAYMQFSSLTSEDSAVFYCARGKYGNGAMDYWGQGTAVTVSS VL: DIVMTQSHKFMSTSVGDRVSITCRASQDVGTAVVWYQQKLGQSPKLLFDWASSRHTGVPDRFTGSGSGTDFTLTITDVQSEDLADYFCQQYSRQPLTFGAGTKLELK | 27600 MFI |

INPUT: Which Top (MFI) is listed for xi7G10E11 hIgG1 (antibody, V domains shown, chimeric, hIgG1) VH: DVKLVESGGGLIKLGGSLKLSCAASGFTFSGYYMSWFRQTPEKRLELVAVINSNGGSTYYAVTVKGRFTISRDNAKNTLYLQMSSLKSEDTALYYCARHEGSQAWFAHWGQGTLVTVSA VL: DIVMTQSHKFMSTSVGDRVSITCKASQDVTTAVAWYQQKPGQSPKLLIYWASTRHTGVPDRFTGSGSGTDYTLTISSVQAEDLALYYCQQHHSTPLTFGAGTKLELK ?
OUTPUT: 39600 MFI
